Listed below: EC50 values for each entry.
system: VEGFR2; experiment: EC50 of VEGFR2 siRNA candidates before and after modification, knockdown in cells; format: cell-based, human; settings: U87-MG cells, 24 h, 24well; read-out: EC50 (nM, 24 h, 24well) Brain cancer U87-MG
Oligonucleotides are written 5' to 3', each unit as a sugar letter and its base; * is a phosphorothioate linkage, no mark a phosphodiester; rarer units and linkages stand in square brackets, end groups in braces. Plain capitals give the bases only. {P} = phosphorylation (indicated by P); d = 2'-deoxy (DNA); m = 2'-O-methyl; r = 2'-OH (RNA); f = 2'-fluoro

[
  {
    "substance": "VEGFR2-21-hm18#: siRNA targeting VEGFR2 mRNA; sense SEQ ID 77, antisense SEQ ID 120 (sense GGAAAAAACAAAACUGUAATT; antisense UUACAGUUUUGUUUUUUCCTT; sugars from the 5' end r19 d2, backbone not given here)",
    "EC50 (nM)": 3.17
  },
  {
    "substance": "VEGFR2-25-h3#mod: Modified (2′F, 2′OME, phosphorylation) siRNA targeting VEGFR2; sense SEQ ID 133, antisense SEQ ID 141 (sense mGmAmCmCmAmAmCmAmUmGmGmAfGfUfCmGmUmGmUmAmCmAmUmUmA; antisense {P}-mUfAmAmUmGmUmAmCmAmCmGmAmCfUmCmCmAmUmGmUmUmGmGmUmC)",
    "EC50 (nM)": 1090
  },
  {
    "substance": "VEGFR2-21-h1#mod: Modified (2′F, 2′OME, phosphorylation) siRNA targeting VEGFR2; sense SEQ ID 131, antisense SEQ ID 139 (sense mGmCmCmUmAmGfUfGfUmUmUmCmUmCmUmUmGmAmUdTdT; antisense {P}-mAfUmCmAmAmGmAmGmAmAmAmCmAfCmUmAmGmGmCdTdT)",
    "EC50 (nM)": 0.99
  },
  {
    "substance": "VEGFR2-21-h5#mod: Modified (2′F, 2′OME, phosphorylation) siRNA targeting VEGFR2; sense SEQ ID 137, antisense SEQ ID 145 (sense mGmCmAmUmCmAfGfCfAmUmAmAmGmAmAmAmCmUmUdTdT; antisense {P}-mAfAmGmUmUmUmCmUmUmAmUmGmCfUmGmAmUmGmCdTdT)",
    "EC50 (nM)": 10.4
  },
  {
    "substance": "VEGFR2-21-hm17#mod: Modified (2′F, 2′OME, phosphorylation) siRNA targeting VEGFR2; sense SEQ ID 135, antisense SEQ ID 143 (sense mGmGmAmCmUmGfGfCfUmUmUmGmGmCmCmCmAmAmUdTdT; antisense {P}-mAfUmUmGmGmGmCmCmAmAmAmGmCfCmAmGmUmCmCdTdT)",
    "EC50 (nM)": 312
  },
  {
    "substance": "VEGFR2-21-h2#mod: Modified (2′F, 2′OME, phosphorylation) siRNA targeting VEGFR2; sense SEQ ID 132, antisense SEQ ID 140 (sense mGmGmUmCmCmAfUfUfUmCmAmAmAmUmCmUmCmAmAdTdT; antisense {P}-mUfUmGmAmGmAmUmUmUmGmAmAmAfUmGmGmAmCmCdTdT)",
    "EC50 (nM)": 2.42
  }
]

---

Listed below: EC50 values for each entry.
System: VEGFR2
Assay: EC50 of VEGFR2 siRNA candidates before and after modification, knockdown in cells
Type: cell-based, human
Conditions: U87-MG cells, 24 h, 24well; read-out: EC50 (nM, 24 h, 24well) Brain cancer U87-MG
Experimental: MDA-MB-231 and U87 cells were seeded in 24-well cell plates (1 × 10^5/well), and then siRNAs (21mer or 25mer or negative control) were transfected with commercial transfection reagent (lipo2000), and the siRNA transfection concentration was 100 nM. […] Relative levels of target gene VEGFR2 mRNA expression were determined by real-time PCR, normalized to the housekeeping gene β-actin. Gene knockdown effectiveness was expressed as a percentage of the blank control. […]
Oligonucleotides are written 5' to 3', each unit as a sugar letter and its base; * is a phosphorothioate linkage, no mark a phosphodiester; rarer units and linkages stand in square brackets, end groups in braces. Plain capitals give the bases only. {P} = phosphorylation (indicated by P); d = 2'-deoxy (DNA); m = 2'-O-methyl; r = 2'-OH (RNA); f = 2'-fluoro

[
  {
    "substance": "VEGFR2-21-h2#: siRNA targeting VEGFR2 mRNA; sense SEQ ID 61, antisense SEQ ID 104 (sense GGUCCAUUUCAAAUCUCAATT; antisense UUGAGAUUUGAAAUGGACCTT; sugars from the 5' end r19 d2, backbone not given here)",
    "measurement.target": "VEGFR2",
    "EC50, nM": 10.7
  },
  {
    "substance": "VEGFR2-21-h1#: siRNA targeting VEGFR2 mRNA; sense SEQ ID 60, antisense SEQ ID 103 (sense GCCUAGUGUUUCUCUUGAUTT; antisense AUCAAGAGAAACACUAGGCTT; sugars from the 5' end r19 d2, backbone not given here)",
    "measurement.target": "VEGFR2",
    "EC50, nM": 1.25
  },
  {
    "substance": "VEGFR2-25-h3#: siRNA targeting VEGFR2 mRNA; sense SEQ ID 43, antisense SEQ ID 86 (sense GACCAACAUGGAGUCGUGUACAUUA; antisense UAAUGUACACGACUCCAUGUUGGUC; RNA, backbone not given here)",
    "measurement.target": "VEGFR2",
    "EC50, nM": 10.9
  },
  {
    "substance": "VEGFR2-25-h4#: siRNA targeting VEGFR2 mRNA; sense SEQ ID 44, antisense SEQ ID 87 (sense CCCUUGAGUCCAAUCACACAAUUAA; antisense UUAAUUGUGUGAUUGGACUCAAGGG; RNA, backbone not given here)",
    "measurement.target": "VEGFR2",
    "EC50, nM": 5.39
  },
  {
    "substance": "VEGFR2-21-hm18# mod: Modified (2′F, 2′OME, phosphorylation) siRNA targeting VEGFR2; sense SEQ ID 136, antisense SEQ ID 144 (sense mGmGmAmAmAmAfAfAfCmAmAmAmAmCmUmGmUmAmAdTdT; antisense {P}-mUfUmAmCmAmGmUmUmUmUmGmUmUfUmUmUmUmCmCdTdT)",
    "measurement.target": "VEGFR2",
    "EC50, nM": 1.57
  },
  {
    "substance": "VEGFR2-21-hm17#: siRNA targeting VEGFR2 mRNA; sense SEQ ID 76, antisense SEQ ID 119 (sense GGACUGGCUUUGGCCCAAUTT; antisense AUUGGGCCAAAGCCAGUCCTT; sugars from the 5' end r19 d2, backbone not given here)",
    "measurement.target": "VEGFR2",
    "EC50, nM": 16.6
  },
  {
    "substance": "VEGFR2-21-h7#: siRNA targeting VEGFR2 mRNA; sense SEQ ID 66, antisense SEQ ID 109 (sense GCUGACAUGUACGGUCUAUTT; antisense AUAGACCGUACAUGUCAGCTT; sugars from the 5' end r19 d2, backbone not given here)",
    "measurement.target": "VEGFR2",
    "EC50, nM": 49.5
  }
]
